These data points were gathered from paper PMC3950713.

Biological target: T1, HpDprA(5-217)F140E (Helicobacter pylori 26695, UniProt O25100 5-217, F140E)
T1 sequence: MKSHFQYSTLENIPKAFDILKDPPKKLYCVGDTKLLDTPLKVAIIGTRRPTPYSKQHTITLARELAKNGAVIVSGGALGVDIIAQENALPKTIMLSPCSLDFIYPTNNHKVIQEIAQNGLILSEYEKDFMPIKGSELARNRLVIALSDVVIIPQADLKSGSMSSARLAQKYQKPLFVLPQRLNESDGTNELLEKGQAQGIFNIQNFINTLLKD
Assay: MST
VALUE TYPE: Kd (nM)
Numbers only; they are read as nM.

So, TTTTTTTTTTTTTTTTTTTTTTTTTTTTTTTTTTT (ssDNA) [dT35] ? Its Kd was 556
